Values compiled from paper PMC9143880.

# EXPERIMENT: RP-UHPLC lipophilicity parameter log k’w
# Type: physicochemical
# MEASUREMENT CONTEXT: experimental lipophilicity parameter
PROPERTY: logkw

Item: O=C(Nc1ncco1)c1cccnc1 | logkw: 0.4358

Item: O=C(Nc1ncco1)c1ccnc(Cl)c1 | logkw: 1.136

Item: O=C(Nc1nc(-c2ccccc2)cs1)c1cnc(Cl)cn1 [Compound 18a] | logkw: 3.173

Item: O=C(Nc1ncco1)c1cnccn1 | logkw: 0.154

Item: O=C(Nc1nc(-c2ccccc2)cs1)c1ccccn1 [Compound 11a] | logkw: 3.102

Item: Cc1cc(C(=O)Nc2ncco2)ccn1 | logkw: 0.714

Item: O=C(Nc1ncco1)c1cnc2ccccc2n1 [Compound 10b] | logkw: 1.493

Item: O=C(Nc1nc(-c2ccccc2)cs1)c1cnc2ccccc2n1 [Compound 19a] | logkw: 3.583

Item: O=C(Nc1nc(-c2ccccc2)cs1)c1cnccn1 [Compound 17a] | logkw: 2.365

Item: O=C(Nc1nc(-c2ccccc2)cs1)c1cccnc1 [Compound 12a] | logkw: 2.131

Item: Cc1cncc(C(=O)Nc2ncco2)c1 | logkw: 0.8881

Item: O=C(Nc1nccs1)c1cnc2ccccc2n1 [Compound 10a] | logkw: 2.53

Item: O=C(Nc1nccs1)c1ccnc(Cl)c1 | logkw: 2.013

Item: O=C(Nc1nc(-c2ccccc2)co1)c1cnc(Cl)cn1 [Compound 18b] | logkw: 2.073

Item: O=C(Nc1nc(-c2ccccc2)co1)c1cnccn1 [Compound 17b] | logkw: 1.306

Item: O=C(Nc1ncco1)c1cnc(Cl)cn1 | logkw: 0.958

Item: O=C(Nc1nccs1)c1cnc(Cl)cn1 | logkw: 1.941

* * *

PROPERTY: melting point

# MOLECULE, melting point
measured = [
    ("Cc1cc(C(=O)Nc2ncco2)ccn1", "149 to 152 °C"),
    ("O=C(Nc1nccs1)c1cnc(Cl)cn1", "197 to 200 °C"),
    ("Cc1cncc(C(=O)Nc2ncco2)c1", "171 to 175 °C"),
    ("O=C(Nc1ncco1)c1ccnc(Cl)c1", "158 to 162 °C"),
    ("O=C(Nc1nc(-c2ccccc2)cs1)c1cnc2ccccc2n1 [Compound 19a]", "217 to 219 °C"),
]

Item: O=C(Nc1nc(-c2ccccc2)cs1)c1ccccn1 [Compound 11a] | melting point: 128 to 130 °C

Item: O=C(Nc1ncco1)c1cccnc1 | melting point: 155 to 160 °C

Item: Cc1cc(C(=O)Nc2nccs2)cc(Cl)n1 | melting point: 198.6 °C

Item: Cc1cc(C(=O)Nc2nc(-c3ccccc3)cs2)cc(Cl)n1 [Compound 16a] | melting point: 92 to 96 °C

Item: O=C(Nc1nc(-c2ccccc2)co1)c1cnc2ccccc2n1 [Compound 19b] | melting point: 181 to 183 °C

Item: O=C(Nc1ncco1)c1ccccn1 | melting point: 129 to 131 °C

Item: O=C(Nc1nccs1)c1ccncc1 | melting point: 194 to 195 °C

Item: O=C(Nc1ncco1)c1cnc(Cl)cn1 | melting point: 160 to 164 °C

Item: O=C(Nc1ncco1)c1cnc2ccccc2n1 [Compound 10b] | melting point: 163 to 165 °C

Item: Cc1cncc(C(=O)Nc2nc(-c3ccccc3)co2)c1 [Compound 14b] | melting point: 258.6 °C

Item: O=C(Nc1nccs1)c1ccnc(Cl)c1 | melting point: 152 to 154 °C

Item: O=C(Nc1ncco1)c1cnccn1 | melting point: 160 to 164 °C
